Recorded LD50 values for a group of compounds are listed next.
# experiment description: Median lethal dose in L1210 (murine luekemia) inoculated mice.
# Format: toxicity, organism-based
# test conditions: mouse, in vivo
Please give a number only; it is taken to be in mg/kg.

Worked cases, answers included:
CC(O)C(NC(=O)N(CCCl)N=O)C(=O)NCCCl (stereo not given): 25
O=NN(CCCl)C(=O)NCC(=O)NCCCl: 25
O=NN(CCCl)C(=O)NC1CCCCC1 [LOMUSTINE]: 30
O=NN(CCCl)C(=O)NC(Cc1ccccc1)C(=O)NCCCl (stereo not given): 80

Let us move to another entry and its LD50.
Challenge: Using the record for O=NN(CCCl)C(=O)N1CCCC1C(=O)NCCCl (stereo not given) , state its measured LD50.
Response given: 80
